- System Name: KRAS (G12D)::SOS1 (Homo sapiens (Human), UniProt P01116, G12D)
- Sequence (P01116 other isoform, or with tags, fused parts or gaps G12D): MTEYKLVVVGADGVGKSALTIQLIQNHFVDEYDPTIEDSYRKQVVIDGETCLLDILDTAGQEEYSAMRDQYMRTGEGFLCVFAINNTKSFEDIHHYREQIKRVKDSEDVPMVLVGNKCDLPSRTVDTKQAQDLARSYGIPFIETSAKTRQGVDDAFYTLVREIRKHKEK
- Test Method Notes: KRAS::SOS1 AlphaScreen binding assay, KRAS G12D
Measure Name: IC50 (nM)

P. C[C@H](Oc1cc(-n2cc3c(n2)CNC3)nc(-c2noc3c2CCC[C@@]32CCCc3sc(N)c(C#N)c32)n1)[C@@H]1CCCN1C
Q. C[C@H](Oc1cc(-n2ccc(C3(O)COC3)n2)nc(-c2noc3c2CCC[C@@]32CCCc3sc(N)c(C#N)c32)n1)[C@@H]1CCCN1C
Record comparison, field IC50: mark the lower of P and Q . Selection: enter the item's label. P
(P: 1 nM, Q: 2 nM)

* * *

- System Name: KRAS (G12C)::SOS1 (Homo sapiens (Human), UniProt P01116, C118S/C51S/C80L/G12C)
- Sequence (P01116 other isoform, or with tags, fused parts or gaps G12C/C51S/C80L/C118S): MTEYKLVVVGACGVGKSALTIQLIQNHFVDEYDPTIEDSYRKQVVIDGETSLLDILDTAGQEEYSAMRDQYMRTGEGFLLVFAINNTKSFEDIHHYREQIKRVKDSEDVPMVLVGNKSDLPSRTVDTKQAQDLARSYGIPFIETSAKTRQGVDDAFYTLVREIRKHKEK
- Test Method Notes: KRAS::SOS1 AlphaScreen binding assay, KRAS G12C
- Description: This assay can be used to examine the potency with which compounds according to the invention binding to (mutated) KRAS inhibit the protein-protein interaction between SOS1 and (mutated) KRAS e.g., KRAS WT, KRAS G12C, KRAS G12D, KRAS G12V, KRAS G13D. […] Plates are kept at room temperature in a darkened incubator. After an additional 60 minutes incubation time the signal is measured in a PerkinElmer Envision HTS Multilabel Reader using the AlphaScreen specs from PerkinElmer. […]
pIC50: −log10 of the molar value.
Measure Name: pIC50

These solved cases illustrate the format of a correct answer.
1. C[C@H](Oc1cc(-c2ccn(C[C@@H]3CCCO3)n2)nc(-c2noc3c2CCC[C@@]32CCCc3sc(N)c(C#N)c32)n1)[C@@H]1CCCN1C: 9.00
2. C[C@H](Oc1cc(N2CCNC[C@@]23CCOC3)nc(-c2noc3c2CCC[C@@]32CCCc3sc(N)c(C#N)c32)n1)[C@@H]1CCCN1C: 8.40
3. C[C@H](Oc1cc(-n2cnc3cccnc32)nc(-c2noc3c2CCC[C@@]32CCCc3sc(N)c(C#N)c32)n1)[C@@H]1CCCN1C: 8.40
4. C[C@H](Oc1cc(-n2cc(-c3cccnc3)nn2)nc(-c2noc3c2CCC[C@@]32CCCc3sc(N)c(C#N)c32)n1)[C@@H]1CCCN1C: 8.70
5. C[C@H](Oc1cc(-n2ccc(C(=O)NC3(C)COC3)n2)nc(-c2noc3c2CCC[C@@]32CCCc3sc(N)c(C#N)c32)n1)[C@@H]1CCCN1C: 9.00

a. C[C@H](Oc1cc(-c2ccn([C@H]3CCOC3)n2)nc(-c2noc3c2CCC[C@@]32CCCc3sc(N)c(C#N)c32)n1)[C@@H]1CCCN1C
b. COCCNC(=O)c1ccn(-c2cc(O[C@@H](C)[C@@H]3CCCN3C)nc(-c3noc4c3CCC[C@@]43CCCc4sc(N)c(C#N)c43)n2)n1
// max by pIC50 over [ a , b ] Selection: enter the item's label. b
(b: 9.00, a: 8.70)

I. C[C@H](Oc1cc(N2CCN(C)C3(CCC3)C2)nc(-c2onc3c2CCC[C@@]32CCCc3sc(N)c(C#N)c32)n1)[C@@H]1CCCN1C
II. C[C@H](Oc1cc(-n2ccc(-c3cn([C@H]4CCOC4)nn3)n2)nc(-c2noc3c2CCC[C@@]32CCCc3sc(N)c(C#N)c32)n1)[C@@H]1CCCN1C
III. CO[C@H]1CCN(C)[C@@H]1[C@H](C)Oc1cc(-n2ccc(C(N)=O)n2)nc(-c2noc3c2CCC[C@@]32CCCc3sc(N)c(C#N)c32)n1
IV. CO[C@@H]1C[C@@H]([C@H](C)Oc2cc(N3CCN(C)C4(CC4)C3)nc(-c3noc4c3CCC[C@@]43CCCc4sc(N)c(C#N)c43)n2)N(C)C1
V. C[C@H]1CN(C)CCCN1c1nc(-c2noc3c2CCC[C@@]32CCCc3sc(N)c(C#N)c32)cc(N2CCN(C)C3(CC3)C2)n1
Order the records so the highest pIC50 appears first and the lowest last. Put the labels in the requested order and write them down. III, II, IV, I, V

A. C[C@H](Oc1cc(N2CCNC2=O)nc(-c2noc3c2CCC[C@@]32CCCc3sc(N)c(C#N)c32)n1)[C@@H]1CCCN1C
B. C[C@H](NC(=O)c1ccn(-c2cc(O[C@@H](C)[C@@H]3CCCN3C)nc(-c3onc4c3CCC[C@@]43CCCc4sc(N)c(C#N)c43)n2)n1)c1ccccn1
C. C[C@H](Oc1cc(N2CCN(C)CC2)nc(-c2noc3c2CCC[C@@]32CCCc3sc(N)c(C#N)c32)n1)[C@@H]1CCCN1C
D. C[C@H](Oc1cc(N2CC[C@H](N3CCCCC3)C2)nc(-c2noc3c2CCC[C@@]32CCCc3sc(N)c(C#N)c32)n1)[C@@H]1CCCN1C
Order the records so the highest pIC50 appears first and the lowest last. Put the labels in the requested order and write them down. B, A, C, D

a. C[C@H](Oc1cc([C@H]2CCN(C)C2)nc(-c2noc3c2CCC[C@@]32CCCc3sc(N)c(C#N)c32)n1)[C@@H]1CCCN1C
b. C[C@H](Oc1cc(-n2ccc(C(=O)N[C@@H]3CCOC3)n2)nc(-c2noc3c2CCC[C@@]32CCCc3sc(N)c(C#N)c32)n1)[C@@H]1CCCN1C
c. C[C@H](Oc1cc(N2CCN(C)CC2)nc(-c2noc3c2CCC[C@@]32CCCc3sc(N)c(C#N)c32)n1)[C@@H]1CCCN1[C@@H]1CCOC1
Endpoint returns the given compounds ordered by ascending pIC50. Put the labels in the requested order and write them down. c, a, b

* * *

- Test Method Notes: Solubility measurement (DMSO solution method), McIlvaine buffer pH 4.5 or 6.8
- Format: physicochemical
- Condition Summary: aqueous buffer, kinetic from dmso stock; McIlvaine buffer pH 4.5; DMSO stock diluted to 250 μM; 24 h shaking at ambient temperature; read-out: solubility pH 4.5
Measure Name: solubility at 24 h (µg/mL)

1. C[C@H](Oc1cc(N2CCNC2=O)nc(-c2noc3c2CCC[C@@]32CCCc3sc(N)c(C#N)c32)n1)[C@@H]1CCCN1C
2. CC(C)N1CCCN(c2cc(-c3ccn(C)n3)nc(-c3noc4c3CCC[C@@]43CCCc4sc(N)c(C#N)c43)n2)[C@@H](C)C1
// max by solubility at 24 h over [ 1 , 2 ] Selection: enter the item's label. 2

* * *

- Test system: GP2D cells
- Test Method Notes: GP2D proliferation assay (120 h) (colorectal cancer, G12D)
- Format: cell-based
pIC50: −log10 of the molar value.
Measure Name: pIC50

These solved cases illustrate the format of a correct answer.
1. C[C@H](Oc1cc(-n2ccc(-c3cnccn3)n2)nc(-c2noc3c2CCC[C@@]32CCCc3sc(N)c(C#N)c32)n1)[C@@H]1CCCN1C [II-130]: 6.63
2. CO[C@H]1CCN(C)[C@@H]1[C@H](C)Oc1cc(N2CCNC3(CC3)C2)nc(-c2onc3c2CCC[C@@]32CCCc3sc(N)c(C#N)c32)n1 [I-49]: 9.00
3. C[C@H](Oc1cc(N2CCNC3(COC3)C2)nc(-c2noc3c2CCC[C@@]32CCCc3sc(N)c(C#N)c32)n1)[C@@H]1C[C@@H](F)CN1C [II-150]: 9.00
4. C[C@H](Oc1cc(N2CCNC3(COC3)C2)nc(-c2noc3c2CCC[C@@]32CCCc3sc(N)c(C#N)c32)n1)[C@@H]1CCCN1C [II-31]: 9.00
5. C[C@H](Oc1cc(N2CC[C@H](N(C)C)C2)nc(-c2noc3c2CCC[C@@]32CCCc3sc(N)c(C#N)c32)n1)[C@@H]1C[C@@H](F)CN1C [II-15]: 8.05
6. CO[C@@H]1C[C@@H]([C@H](C)Oc2cc(N3CCN(C)C4(COC4)C3)nc(-c3noc4c3CCC[C@@]43CCCc4sc(N)c(C#N)c43)n2)N(C)C1 [II-153]: 7.85
7. C[C@H](Oc1cc(N2CCC(N(C)C)CC2)nc(-c2noc3c2CCC[C@@]32CCCc3sc(N)c(C#N)c32)n1)[C@@H]1CCCN1C [II-48]: 7.19
8. C[C@H](Oc1nc(-c2noc3c2CCC[C@@]32CCCc3sc(N)c(C#N)c32)nc(N2CCNC3(CC3)C2)c1F)[C@@H]1C[C@@H](F)CN1C [II-155]: 9.00

I. C[C@H](Oc1cc(-c2ccn3ncnc3c2)nc(-c2noc3c2CCC[C@@]32CCCc3sc(N)c(C#N)c32)n1)[C@@H]1CCCN1C [II-104]
II. C[C@H](Oc1nc(-c2noc3c2CCC[C@@]32CCCc3sc(N)c(C#N)c32)nc(N2CCNC3(CC3)C2)c1Cl)[C@@H]1C[C@@H](F)CN1C [II-156]
// max by pIC50 over [ I , II ] Selection: enter the item's label. II

I. CCN1CCN(c2cc(O[C@@H](C)[C@@H]3C[C@@H](F)CN3C)nc(-c3noc4c3CCC[C@@]43CCCc4sc(N)c(C#N)c43)n2)CC12CC2 [II-185]
II. CO[C@@H]1C[C@@H]([C@H](C)Oc2cc(-c3ccn(C)n3)nc(-c3onc4c3CCC[C@@]43CCCc4sc(N)c(C#N)c43)n2)N(C)C1 [I-23]
// max by pIC50 over [ I , II ] Selection: enter the item's label. I
(I: 7.82, II: 5.93)
